Target: C-C chemokine receptor type 3 (Homo sapiens, UniProt P51677)
Sequence (P51677 whole entry): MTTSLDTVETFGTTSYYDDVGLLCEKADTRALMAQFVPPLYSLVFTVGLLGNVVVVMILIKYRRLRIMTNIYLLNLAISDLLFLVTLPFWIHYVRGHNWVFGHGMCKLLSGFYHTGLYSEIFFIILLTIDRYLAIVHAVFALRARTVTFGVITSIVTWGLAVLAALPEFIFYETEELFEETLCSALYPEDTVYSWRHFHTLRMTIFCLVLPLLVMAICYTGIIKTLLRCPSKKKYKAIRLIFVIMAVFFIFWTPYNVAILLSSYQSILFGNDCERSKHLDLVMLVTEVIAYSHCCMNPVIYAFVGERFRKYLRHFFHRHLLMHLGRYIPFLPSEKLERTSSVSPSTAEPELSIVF
Assay: Compound was tested for its ability to inhibit C-C chemokine receptor type 3 receptor
measureName: pIC50
Just the number, please; pIC50 means minus log10 of the concentration in mol/L.

{"compound": "COc1cc(NC(=O)N[C@@H](CN2C3CCC2CC(Cc2ccc(Cl)cc2)C3)[C@H](C)O)cc(OC)c1OC (some centres undefined)", "pIC50": 8.62}
{"compound": "C[C@H](CN1C2CCC1CC(Cc1ccc(Cl)cc1)C2)NC(=O)Nc1cccc(S(C)(=O)=O)c1 (some centres undefined)", "pIC50": 7.92}
{"compound": "C[C@H](O)[C@H](CN1C2CCC1CC(Cc1ccc(Cl)cc1)C2)NC(=O)Nc1cccc(S(C)(=O)=O)c1 (some centres undefined)", "pIC50": 8.36}

Moving on to the next compound.
Req: I would be grateful if you could share the reported pIC50 for COc1cc(NC(=O)N[C@H](C)CN2C3CCC2CC(Cc2ccc(Cl)cc2)C3)cc(OC)c1OC (some centres undefined) .
Resp: 8.33
